Test system: 883617-216-R-J1-PDC tumor spheroids, viability;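 also: spheroids exposed to agents for 7 days before the viability read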
test-details: Anticancer human tumor 883617-216-R-J1-PDC patient-derived bladder carcinoma cell line growth inhibition [PI3K]
stated-conditions: second compound 1 µM; first compound 0.1 µM; stronger effect = lower value; spheroids with HUVEC and MSC
property-name: viability, T/C (%)
The reply should contain only the number, in %.

Previously resolved entries follow.
INSERT INTO results (molecule, numeric_result) VALUES
  ('Cn1ncnc1[C@H]1c2n[nH]c(=O)c3cc(F)cc(c23)N[C@@H]1c1ccc(F)cc1 + CC(Nc1ccc2c(c1)OCCn1cc(N3C(=O)OCC3C(F)F)nc1-2)C(N)=O', 10.8),
  ('CCCS(=O)(=O)Nc1ccc(F)c(C(=O)c2c[nH]c3ncc(-c4ccc(Cl)cc4)cc23)c1F + CC(Nc1ccc2c(c1)OCCn1cc(N3C(=O)OCC3C(F)F)nc1-2)C(N)=O', 15),
  ('C#Cc1c(F)ccc2cc(O)cc(-c3ncc4c(N5CC6CCC(C5)N6)nc(OCC56CCCN5CC(F)C6)nc4c3F)c12 (stereo unspecified) + CC(Nc1ncnc2nc[nH]c12)c1cc2cccc(Cl)c2c(=O)n1-c1ccccc1', 81.9);

Query (molecule): Cn1nccc1Nc1nccc(-c2ccn(C(CO)c3ccc(Cl)c(F)c3)c(=O)c2)n1 (stereo unspecified) + Cc1nc(NC(=O)N2CCCC2C(N)=O)sc1-c1ccnc(C(C)(C)C(F)(F)F)c1 ; field requested: viability, T/C 25.7

Fill in the blank: the reported viability, T/C of CC1(C)CCC(Nc2ncc(C(F)(F)F)c(-c3c[nH]c4c(P(C)(C)=O)c(C#N)ccc34)n2)CN1 (stereo unspecified) + CC(Nc1ncnc2nc[nH]c12)c1cc2cccc(Cl)c2c(=O)n1-c1ccccc1 is ____. 33.7

Report viability, T/C for CC(Cn1ccc(-c2ccc(C#N)c(Cl)c2)n1)NC(=O)c1cc(C(C)O)[nH]n1 (stereo unspecified) + CC(Nc1ccc2c(c1)OCCn1cc(N3C(=O)OCC3C(F)F)nc1-2)C(N)=O please. 15
